system: human red blood cells (RBCs); assay: Hemolysis assay; format: cell-based; conditions: red cells of human, 1 h, 32
Where a SMILES comes first, the peptide text is derived from it.
quantity.name: Percentage of hemolysis at 32 μg/mL
Answer with the number, then the unit.

Here is how some compounds turned out for Percentage of hemolysis at 32 μg/mL.
compound: CC[C@H](C)[C@H](NC(=O)[C@H](C)NC(=O)[C@H](CCCCN)NC(=O)[C@@H](NC(=O)[C@@H](NC(=O)[C@H](CC(=O)O)NC(=O)[C@H](Cc1ccccc1)NC(=O)[C@H](CC(C)C)NC(=O)CN)[C@@H](C)CC)[C@@H](C)CC)C(=O)N[C@@H](C)C(=O)N[C@@H](CCC(=O)O)C(=O)N[C@@H](CO)C(=O)N[C@@H](Cc1ccccc1)C(N)=O [Peptide K8A] (H-GLFDIIKAIAESF-NH2)
Percentage of hemolysis at 32 μg/mL: 5.5%

compound: CC[C@H](C)[C@H](NC(=O)[C@H](CCCCN)NC(=O)[C@H](CCCCN)NC(=O)[C@@H](NC(=O)[C@@H](NC(=O)[C@H](CC(=O)O)NC(=O)[C@H](Cc1ccccc1)NC(=O)[C@H](CC(C)C)NC(=O)CN)[C@@H](C)CC)[C@@H](C)CC)C(=O)N[C@@H](C)C(=O)N[C@@H](C)C(=O)N[C@@H](CO)C(=O)N[C@@H](Cc1ccccc1)C(N)=O [Peptide E11A] (H-GLFDIIKKIAASF-NH2)
Percentage of hemolysis at 32 μg/mL: 0.4%

Below: the item to evaluate.
Fill in Percentage of hemolysis at 32 μg/mL for record CC[C@H](C)[C@H](NC(=O)[C@H](CCCCN)NC(=O)[C@H](CCCCN)NC(=O)[C@@H](NC(=O)[C@@H](NC(=O)[C@H](CC(=O)O)NC(=O)[C@H](Cc1ccccc1)NC(=O)[C@H](C)NC(=O)CN)[C@@H](C)CC)[C@@H](C)CC)C(=O)N[C@@H](C)C(=O)N[C@@H](CCC(=O)O)C(=O)N[C@@H](CO)C(=O)N[C@@H](Cc1ccccc1)C(N)=O [Peptide L2A] (H-GAFDIIKKIAESF-NH2)
0.0%

====

tested on: E. faecalis PCM 2673 biofilm; type: cell-based, Enterococcus faecalis; settings: 24 h
Where a SMILES comes first, the peptide text is derived from it.
quantity.name: MBEC, E. faecalis PCM 2673

Solved entries (count: 2):
compound: CC[C@H](C)[C@H](NC(=O)[C@H](CC(=O)O)NC(=O)[C@H](Cc1ccccc1)NC(=O)[C@H](CC(C)C)NC(=O)CN)C(=O)N[C@H](C(=O)N[C@@H](CCCCN)C(=O)N[C@@H](CCCCN)C(=O)N[C@@H](C)C(=O)N[C@@H](C)C(=O)N[C@@H](CCC(=O)O)C(=O)N[C@@H](CO)C(=O)N[C@@H](Cc1ccccc1)C(N)=O)[C@@H](C)CC [Peptide I9A] (H-GLFDIIKKAAESF-NH2)
MBEC, E. faecalis PCM 2673: > 512 µg/mL
//
compound: CC[C@H](C)[C@H](NC(=O)[C@H](CCCCN)NC(=O)[C@H](CCCCN)NC(=O)[C@@H](NC(=O)[C@@H](NC(=O)[C@H](CC(=O)O)NC(=O)[C@H](Cc1ccccc1)NC(=O)[C@H](CC(C)C)NC(=O)CN)[C@@H](C)CC)[C@@H](C)CC)C(=O)N[C@@H](C)C(=O)N[C@@H](C)C(=O)N[C@@H](CO)C(=O)N[C@@H](Cc1ccccc1)C(N)=O [Peptide E11A] (H-GLFDIIKKIAASF-NH2)
MBEC, E. faecalis PCM 2673: > 512 µg/mL

Now for the compound whose MBEC, E. faecalis PCM 2673 we want.
Provide E. faecalis PCM 2673 biofilm MBEC, E. faecalis PCM 2673 reading for CC[C@H](C)[C@H](NC(=O)[C@H](CCCCN)NC(=O)[C@H](CCCCN)NC(=O)[C@H](C)NC(=O)[C@@H](NC(=O)[C@H](CC(=O)O)NC(=O)[C@H](Cc1ccccc1)NC(=O)[C@H](CC(C)C)NC(=O)CN)[C@@H](C)CC)C(=O)N[C@@H](C)C(=O)N[C@@H](CCC(=O)O)C(=O)N[C@@H](CO)C(=O)N[C@@H](Cc1ccccc1)C(N)=O [Peptide I6A] (H-GLFDIAKKIAESF-NH2) .
> 512 µg/mL
